# TARGET_UNDER_TEST: HLA-A*01:01
# PROTOCOL_TEXT: IEDB peptide-MHC binding, purified MHC/competitive/fluorescence; filed as Kd, often an IC50 or EC50 that approximates it; bounds were set here for any values at or beyond the usual limits of such assays
# SETUP_CONDITIONS: source organism: Vaccinia virus WR
pKd: −log10 of the molar value.
VALUE_TYPE: pKd

Ask | Would you kindly share the measured pKd for "IHIPGDTLF" ?
Reply | ≤ 4.70

###

# TARGET_UNDER_TEST: HLA-A*25:01
# PROTOCOL_TEXT: IEDB peptide-MHC binding, purified MHC/competitive/fluorescence; filed as Kd, often an IC50 or EC50 that approximates it; bounds were set here for any values at or beyond the usual limits of such assays
# SETUP_CONDITIONS: source organism: Salmonella enterica subsp. enterica serovar Typhi
VALUE_TYPE: Kd (nM)
Give the value, in units of nM, as a plain number.

Ask | Under HLA-A*25:01: Kd value of "SVIDHIHYM" ?
Reply | 13.7

Values compiled from the Immune Epitope Database (IEDB).
